- Experimental system: purine nucleoside phosphorylase (PNP) (Bos taurus)
- Construct: Calf Spleen; from tissue; host or cells: calf spleen
- Sequence (P55859 1-289): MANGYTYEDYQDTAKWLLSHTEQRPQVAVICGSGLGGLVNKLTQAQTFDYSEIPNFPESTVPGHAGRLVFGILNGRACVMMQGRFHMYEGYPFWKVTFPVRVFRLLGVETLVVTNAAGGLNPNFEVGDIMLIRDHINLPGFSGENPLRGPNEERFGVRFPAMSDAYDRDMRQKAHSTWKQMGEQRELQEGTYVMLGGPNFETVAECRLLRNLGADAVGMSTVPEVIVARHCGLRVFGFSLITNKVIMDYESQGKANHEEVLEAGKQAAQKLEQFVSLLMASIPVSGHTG
- Test protocol: PNP inhibition, coupled xanthine oxidase method of Kalckar (calf spleen PNP)
- Type: biochemical
Assay endpoint: Ki (nM)
Give just the number in nM; leave the unit off.

>>> obs_value("O=c1[nH]cnc2c1ncn2CCCCCCC(F)(F)P(=O)(O)O")
2200
>>> obs_value("Nc1nc2c(ncn2CCCCCCCC(F)(F)P(=O)(O)O)c(=O)[nH]1")
620
>>> obs_value("Nc1nc2c(ncn2CCCCCCC(F)(F)P(=O)(O)O)c(=O)[nH]1")
150
>>> obs_value("Nc1nc2c(ncn2CCCCCC(F)(F)P(=O)(O)O)c(=O)[nH]1")
320

// returns reported Ki for input Nc1nc(O)c2ncn(CCCCCCCP(=O)(O)O)c2n1
1200
